# MEASUREMENT DESCRIPTION: rat plasma protein binding (PPB) assay
# Type: in vitro ADME
# MEASUREMENT SETUP: average, read-out: Rat Plasma Protein Binding % Bound Avg (converted)
Label key: condition met means fraction unbound under 0.02; condition not met means fraction unbound of 0.02 or more.

Sample answers from the record:
Cc1cc(CNc2cccc(-c3ccc(S(C)(=O)=O)cc3)n2)co1 | condition not met
CS(=O)(=O)c1ccc(-c2cccc(NCc3ccc(F)o3)n2)cc1 | condition not met
COc1ncc(NCc2cccs2)nc1-c1ccc(S(C)(=O)=O)cc1 | condition met

Problem: I'd appreciate it if you could check whether "CS(=O)(=O)c1ccc(-c2cccc(OCc3cccs3)n2)cc1" has fraction unbound smaller than 0.02.
Solution: condition met

Problem: Also, "COc1ccc(NCc2cccs2)nc1-c1ccc(S(C)(=O)=O)cc1" please.
Solution: condition not met

Problem: Okay, and "CS(=O)(=O)c1ccc(-c2cccc(NCc3ccoc3)n2)cc1" ?
Solution: condition not met

###

# MEASURED TARGET: ovine COX-1 (oCOX-1) (Ovis aries, UniProt P05979)
# Construct: purchased Cayman Chemicals (Ann Arbor, Mich.)
# Sequence (P05979 25-600): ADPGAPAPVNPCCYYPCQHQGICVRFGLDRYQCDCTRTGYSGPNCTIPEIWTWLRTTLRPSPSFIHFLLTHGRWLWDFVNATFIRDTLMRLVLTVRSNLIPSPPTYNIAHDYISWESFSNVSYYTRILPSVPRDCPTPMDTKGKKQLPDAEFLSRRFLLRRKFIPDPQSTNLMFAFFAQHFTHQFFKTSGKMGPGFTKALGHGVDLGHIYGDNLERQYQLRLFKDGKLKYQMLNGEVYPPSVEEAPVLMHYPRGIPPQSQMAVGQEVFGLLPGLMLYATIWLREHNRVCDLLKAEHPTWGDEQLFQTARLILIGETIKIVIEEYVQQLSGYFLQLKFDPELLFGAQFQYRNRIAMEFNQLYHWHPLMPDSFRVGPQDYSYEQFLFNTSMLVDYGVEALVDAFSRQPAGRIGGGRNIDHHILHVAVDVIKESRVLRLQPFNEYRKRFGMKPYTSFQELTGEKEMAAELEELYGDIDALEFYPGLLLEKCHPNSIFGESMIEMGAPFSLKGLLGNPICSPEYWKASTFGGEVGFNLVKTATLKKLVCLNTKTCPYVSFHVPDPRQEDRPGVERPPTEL
# MEASUREMENT DESCRIPTION: LCMS-based COX-1 enzymatic inhibition assay (PGE2 quantification)
# Assay type: biochemical
# MEASUREMENT SETUP: 10 minutes; readout pge2 area (counts); average LLE
COX1 10 minutes pge2 area (counts) Avg. LLE below 3 gives false; COX1 10 minutes pge2 area (counts) Avg. LLE at or above it gives true.

Consider the worked cases shown below.
CS(=O)(=O)c1ccc(-c2cc(F)cc(OCc3cccs3)n2)cc1 | false
CS(=O)(=O)c1ccc(-c2nc(NCc3cccs3)cc3ccoc23)cc1 | false
Cc1ncc(-c2ccc(S(C)(=O)=O)cc2)nc1OCc1cccs1 | true
COc1ncc(NCc2cccs2)nc1-c1ccc(S(C)(=O)=O)cc1 | true

Note: attention shifts to another entry.
Problem: Identify whether the reported COX1 10 minutes pge2 area (counts) Avg. LLE of the following compound is 3 or greater: "CS(=O)(=O)c1ccc(-c2cncc(OCc3cccs3)n2)cc1"
Solution: false

###

# MEASURED TARGET: human recombinant COX2 (hCOX2)
# MEASUREMENT DESCRIPTION: LCMS-based COX2 enzymatic inhibition assay (PGE2 quantification)
# Assay type: biochemical
# Design: COX2 2 minutes pge2/pge2d4 area ratio Avg; other: 2 minutes; readout pge2/pge2d4 area ratio; average; COX2 2 minutes pge2/pge2d4 area ratio Avg; LLE; average LLE; COX2 2 minutes pge2 area (counts) Avg; readout pge2 area (counts); other: 2 min; "ovine COX2 (oCOX2), human recombinant COX2 (hCOX2)"
# MEASUREMENT SETUP: 2 minutes; readout pge2 area (counts); average LLE
Let's look at some compounds and their measured COX2 2 minutes pge2 area (counts) Avg. LLE.
Write the value as a bare number.

CS(=O)(=O)c1ccc(-c2cccc(C3CC3c3ccoc3)n2)cc1 (single isomer, unassigned) [Compound 314] | 2.024
CS(=O)(=O)c1ccc(-c2cccc(NCc3cnoc3)n2)cc1 | 5.206

Problem: Given the entry C[C@@H](Oc1cncc(-c2ccc(S(C)(=O)=O)cc2)n1)c1cccs1 (single isomer, unassigned) , what COX2 2 minutes pge2 area (counts) Avg. LLE was observed with human recombinant COX2 (hCOX2)?
Solution: 2.379

Problem: Moving on to "COc1ccc(-c2ccc(S(C)(=O)=O)cc2)nc1NCc1cccs1"
Solution: 3.174

Problem: Thanks! And "CSc1ccc(-c2cccc(NCc3ccco3)n2)cc1" ?
Solution: 1.004

Problem: Further, for "CCOc1ncc(NCc2cccs2)nc1-c1ccc(S(C)(=O)=O)cc1" ?
Solution: 4.857

Problem: Also, "CS(=O)(=O)c1ccc(-c2cccc(Nc3ccccc3)n2)cc1" please.
Solution: 2.538

Problem: Next entry: "COc1ncc(-c2ccc(S(C)(=O)=O)cc2)nc1NCc1cccs1"
Solution: 4.564

###

# MEASURED TARGET: ovine COX-1 (oCOX-1) (Ovis aries, UniProt P05979)
# Construct: purchased Cayman Chemicals (Ann Arbor, Mich.)
# MEASUREMENT DESCRIPTION: LCMS-based COX-1 enzymatic inhibition assay (PGE2 quantification)
# Assay type: biochemical
# MEASUREMENT SETUP: 10 minutes; readout pge2 area (counts); average LLE
Each entry falls into one class according to its COX1 10 minutes pge2 area (counts) Avg. LLE; the ranges are Low: < 0.8; Medium: ≥ 0.8 and < 2; High: ≥ 2

Solved entries:
C[C@H](Oc1cccc(-c2ccc(S(C)(=O)=O)cc2)n1)c1cccs1 (single isomer, unassigned) [Compound 46] | Low
CS(=O)(=O)c1ccc(-c2cccc(NCc3ccsc3)n2)cc1 [Compound 11] | Medium
Cc1csc(COc2cncc(-c3ccc(S(C)(=O)=O)cc3)n2)c1 [Compound 10] | High
CS(=O)(=O)c1ccc(-c2cc(F)cc(NCc3ccco3)n2)cc1 [Compound 14] | Medium
COc1ncc(NCc2ccoc2)nc1-c1ccc(S(C)(=O)=O)cc1 [Compound 44] | High

Shifting focus to the compound that follows.
Problem: Sort into band: CS(=O)(=O)c1ccc(-c2ccc(F)c(OCc3cccs3)n2)cc1 [Compound 45]
Solution: Medium

###

# MEASURED TARGET: human recombinant COX2 (hCOX2) (UniProt P35354)
# MEASUREMENT DESCRIPTION: LCMS-based COX2 enzymatic inhibition assay (PGE2 quantification)
# Type: biochemical
# Design: COX2 2 minutes pge2/pge2d4 area ratio Avg; other: 2 minutes; readout pge2/pge2d4 area ratio; average; COX2 2 minutes pge2/pge2d4 area ratio Avg; LLE; average LLE; COX2 2 minutes pge2 area (counts) Avg; readout pge2 area (counts); other: 2 min; "ovine COX2 (oCOX2), human recombinant COX2 (hCOX2)"
# MEASUREMENT SETUP: 2 minutes; readout pge2 area (counts); average; read-out: COX2 2 minutes pge2 area (counts) Avg. IC50
MEASURED PARAMETER: log10 IC50 (log10 of the value in nM)
Values below are the log10 of the recorded IC50, with nM as the unit.

Recorded log10 IC50, per entry:
COc1ccc(-c2ccc(S(C)(=O)=O)cc2)nc1NCc1cccs1 | 2.56
CS(=O)(=O)c1ccc(-c2cccc(C3CC3c3ccoc3)n2)cc1 (single isomer, unassigned) [Compound 177] | 2.80

Problem: What measured log10 IC50 goes with "CS(=O)(=O)c1ccc(-c2cccc(NCc3ccc(F)cc3)n2)cc1" ?
Solution: 0.91

Problem: Similarly, "CS(=O)(=O)c1ccc(-c2coc3ccc(NCc4ccoc4)nc23)cc1" ?
Solution: 1.42

Problem: Can you handle "CS(=O)(=O)c1ccc(-n2ncc3ccc(NCc4cccs4)nc32)cc1" next?
Solution: 1.77

Problem: Now consider "CS(=O)(=O)c1ccc(-c2cccc(NCc3ccno3)n2)cc1" and answer again.
Solution: 2.80

Problem: Then this molecule: "CN(Cc1cccs1)c1cncc(-c2ccc(S(C)(=O)=O)cc2)n1"
Solution: 1.37

Problem: Similarly, CS(=O)(=O)c1ccc(-c2cncc(OC[C@@H]3CCCS3)n2)cc1 (single isomer, unassigned) ?
Solution: 2.97

Problem: Entry "COc1ncc(NCc2ccccn2)nc1-c1ccc(S(C)(=O)=O)cc1" please
Solution: 3.26

Problem: Moving on to the next molecule: C[C@H](Oc1cccc(-c2ccc(S(C)(=O)=O)cc2)n1)c1cccs1 (single isomer, unassigned)
Solution: 1.37

Problem: And for "CN(Cc1ccco1)c1cccc(-c2ccc(S(C)(=O)=O)cc2)n1" ?
Solution: 3.14

###

# Test system: MDR1
# MEASUREMENT DESCRIPTION: MDR1-MDCKII permeability and efflux
# Assay type: in vitro ADME
# MEASUREMENT SETUP: dog, MDCK-MDR1; A-B; read-out: MDR1-MCKII Papp A-B
MEASURED PARAMETER: Papp A→B (×10⁻⁶ cm/s)
Your answer should be a plain number; it is taken to be in ×10⁻⁶ cm/s.

Here's what some known entries look like.
CS(=O)(=O)c1ccc(-c2cncc(NCc3cccs3)n2)cc1 | 49.7
CS(=O)(=O)c1ccc(-c2cccc(NCc3ccoc3)n2)cc1 | 50.8
COc1ncc(NCc2ccoc2)nc1-c1ccc(S(C)(=O)=O)cc1 | 39.6
CS(=O)(=O)c1ccc(-c2cnc3ccn(Cc4cccs4)c3n2)cc1 | 32.2
CS(=O)(=O)c1ccc(-c2cccc(NCc3ccco3)n2)cc1 | 68.5

Problem: Given "CS(=O)(=O)c1ccc(-c2cccc(OCc3cccs3)n2)cc1" , state its recorded Papp A→B.
Solution: 33.7
